flow cytometry fluorescence (name not given) by entry:
Target: T1, human podocalyxin (human, UniProt O00592 23-558)
T1 construct: also called hPodo; hPodocalyxin
T1 sequence: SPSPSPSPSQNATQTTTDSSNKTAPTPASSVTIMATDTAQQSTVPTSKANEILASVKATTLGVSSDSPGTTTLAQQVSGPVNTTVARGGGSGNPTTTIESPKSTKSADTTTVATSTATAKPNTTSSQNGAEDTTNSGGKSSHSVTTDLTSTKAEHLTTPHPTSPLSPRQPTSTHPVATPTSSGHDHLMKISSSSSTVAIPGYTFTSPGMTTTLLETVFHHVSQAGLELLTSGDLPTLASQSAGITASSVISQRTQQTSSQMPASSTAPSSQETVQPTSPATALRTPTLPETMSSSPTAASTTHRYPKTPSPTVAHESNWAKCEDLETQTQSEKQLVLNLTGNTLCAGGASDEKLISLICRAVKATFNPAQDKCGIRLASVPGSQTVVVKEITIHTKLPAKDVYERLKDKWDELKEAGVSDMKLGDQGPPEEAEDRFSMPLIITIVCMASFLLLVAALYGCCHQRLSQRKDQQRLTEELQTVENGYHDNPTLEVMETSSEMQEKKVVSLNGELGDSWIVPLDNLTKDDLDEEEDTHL
Assay: flow cytometry, supernatant Neat, hPodo/MDA-MB-231 transient transfectants
Just the number.

1. huPodo 83 2:1 (humanized anti-podocalyxin antibody 83, version 2) (antibody, V domains shown, Cloned into pTT5 plasmids with human IgG heavy chain and human Ig kappa constant regions) VH: EVQLVESGGGLVQPGGSLRLSCAASGIDLSSYAMGWVRQAPGKGLEWVSFIYASGSIFYASWAKGRFTISRDNSNTLYLQMNSLRAEDTAVYYCARAGYYFGGNYDLNLWGQGTLVTVSS VL: DIQMTQSPSSLSASVGDRVTITCQASQSISNYLAWYQQKPGKVPKLLIYRASTLASGVPSRFSGSGSGTDFTLTISSLQPEDVATYYCQQGYVSNNLDNIFGGGTEVVVK	139000
2. Rb VH, Vk 1:1 (Podo 83 rabbit VH, human CH1-CH3, human Ck, and humanized Vk) (antibody, V domains shown, Human CH1-CH3 and human Ck) VH: QSLAESGGRLVTPGTPLTLTCTASGIDLSSYAMGWVRQAPGKGLEYIGFIYASGSIFYASWAKGRFTISKTSSTTVDLKMTSLTTEDTATYFCARAGYYFGGNYDLNLWGQGTLVTVSS VL: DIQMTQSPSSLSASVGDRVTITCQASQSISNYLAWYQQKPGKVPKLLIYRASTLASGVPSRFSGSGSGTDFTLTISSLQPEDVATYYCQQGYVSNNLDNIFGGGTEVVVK	137000
3. huPodo 83 1:1 (humanized anti-podocalyxin antibody 83, version 1) (antibody, V domains shown, Cloned into pTT5 plasmids with human IgG heavy chain and human Ig kappa constant regions) VH: EVQLVESGGGLVQPGGSLRLSCAASGIDLSSYAMGWVRQAPGKGLEWVSFIYASGSIFYASWAKGRFTISRDNSKNTLYLQMNSLRAEDTAVYYCARAGYYFGGNYDLNLWGQGTLVTVSS VL: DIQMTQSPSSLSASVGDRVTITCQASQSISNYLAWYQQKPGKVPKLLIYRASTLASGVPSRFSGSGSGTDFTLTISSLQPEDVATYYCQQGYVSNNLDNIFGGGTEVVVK	124000

Please find the next binder below.
Given the binder Rabbit Podo 83 (Parental rabbit antibody) (antibody, V domains shown, Rabbit constant regions; also called Rb Podo 83 (Rb Constant Region); rabbit Podo-83 (Ab-1)) VH: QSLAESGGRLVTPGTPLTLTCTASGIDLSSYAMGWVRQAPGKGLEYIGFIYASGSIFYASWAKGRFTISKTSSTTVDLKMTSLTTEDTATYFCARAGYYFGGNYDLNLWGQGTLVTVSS VL: DIVLTQTPASVEVAVGGTVTIKCQASQSISNYLAWYQRKPGQPPRLLIYRASTLASGVSSRFKGSGSGTQFTLTISGVECADAATYYCQQGYVSNNLDNIFGGGTEVVVK , what is its reported flow cytometry fluorescence (name not given)?
90800
